Source: paper PMC12752248

Would you mind telling me the reported ΔS of each entry?
tested.target: UniProt:O07006
Sequence (O07006 with tags, fused parts or gaps A39G/H105Y/L108V/E129D/F132Y/K134N/E136A/V138I/D139N/E142T/V143L/K146E): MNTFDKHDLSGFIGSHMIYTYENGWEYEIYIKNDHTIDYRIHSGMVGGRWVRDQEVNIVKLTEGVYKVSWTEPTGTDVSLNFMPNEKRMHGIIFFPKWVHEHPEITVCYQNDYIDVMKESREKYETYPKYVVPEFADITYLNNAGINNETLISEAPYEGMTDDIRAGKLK
assay.overview: Isothermal titration calorimetry of enzyme-substrate interaction, BJ6PAD-N
Type: binding, Bacillus subtilis J6
cond: ITC, 37 °C
Give bare numbers, in kJ/mol·K.

COc1cc(/C=C/C(=O)O)ccc1O [ferulic acid] = 0.07
O=C(O)/C=C/c1ccc(O)cc1 [p-coumaric acid] = 0.07
COc1cc(/C=C/C(=O)O)cc(OC)c1O [sinapic acid] = 0.10

Okay, now this compound:
Retrieve ΔS on UniProt:O07006; query O=C(O)/C=C/c1ccc(O)c(O)c1 [caffeic acid] -0.10
